experiment: NCI Yeast Anticancer Drug Screen. Data for the mlh1 rad18 strain (AID 175); conditions: S. cerevisiae mlh1 rad18 strain growth inhibition; at 50.0 µM; active compounds read high
Compounds without any hit were thinned out: in the full panel of roughly 79,000, 15% have a hit.
Property: growth inhibition (%)
Return type: number; implicit unit %.

Answered cases to consult:
ClCc1ccc(-c2ccccc2)cc1 ... 47
CCOC(=O)CSC(=O)NCCCl ... 9.1
CCC1CN2CCc3c([nH]c4ccccc34)[C@@](C(=O)OC)(c3cc4c(cc3OC)N(C)C3C(O)(C(=O)OC)C(C(=O)OC)C5(CC)C=CCN6CCC43C65)C[C@@H](C2)[C@@H]1C(C)(C)C (stereo partly drawn) ... -72.7

Give growth inhibition for the following compound: O=C(N/C(=C\c1cc(Cl)ccc1Cl)c1nc2ccccc2[nH]1)c1ccccc1
42.3

----------
experiment: NCI Yeast Anticancer Drug Screen. Data for the cln2 rad14 strain (AID 165);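 also: 0% = growth equal to vehicle treated cultures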; conditions: S. cerevisiae cln2 rad14 strain, at 50.0 µM, active compounds read high
About 79,000 compounds went through this panel and 15% of them were active in at least one assay; those are over-represented in the sample as a whole.
Property: growth inhibition (%)
Return type: number; implicit unit %.

Cc1ccc(OCC2OC(n3cnc4nc(Nc5ccc(Cl)c(Cl)c5)nc(Cl)c43)CC2Oc2ccc(C)cc2)cc1 (stereo unspecified) ... 14.1
O=C(CCC(NC(=O)OCc1ccccc1)C(=O)OCc1ccccc1)Nc1cccc(OCc2ccccc2)c1 (stereo unspecified) ... -23.6
CC(C)=NOCCC#N ... -16.6

Give growth inhibition for the following compound: Cn1cnc2cc3c(cc2c1=O)nc1n3CCCC1
-12.4

Give growth inhibition for the following compound: O/N=C1/CC2(N3CCOCC3)C3CC/C(=N\O)C2CC1(Cc1ccccc1)C3 (stereo unspecified)
27.7

Give growth inhibition for the following compound: C/C(=N/OCCC(=O)O)C1CC1
11.8

----------
Assay: NCI Yeast Anticancer Drug Screen. Data for the rad50 strain (AID 155);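 also: 0% = growth of vehicle-only cultures of the same strain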
Conditions: S. cerevisiae rad50 strain growth inhibition; at 50.0 µM; active compounds read high
Description: Growth inhibition of yeast strains with defined genetic alterations is measured as a screen for potential anti-cancer activity. Selected strains with alterations in DNA damage repair or cell cycle control were exposed to compounds and growth inhibition was measured relative to vehicle treated controls. The strain used in this assay is rad50
Compounds without any hit were thinned out: in the full panel of roughly 79,000, 15% have a hit.
compounds and their reported growth inhibition
Return type: number; implicit unit %.

Answered cases to consult:
C1=C(c2ccccc2)NC2=N[C@H]3CCCC[C@@H]3N2C1c1ccccc1 (stereo partly specified) ... 18.9
C(=C(Sc1ccccc1)Sc1ccccc1)C(Sc1ccccc1)c1ccccc1 (stereo unspecified) ... 12.5
Brc1cccc(CCOCc2ccccc2)c1 ... 8.45
CC(=O)OCC(=O)COC(C)=O ... -4.95

Give growth inhibition for the following compound: NC(=O)n1ccc(CC(O)(C(F)(F)F)C(F)(F)F)n1
-13.2

Give growth inhibition for the following compound: COc1cc(C[C@H]2C(=O)OCC2Cc2ccc(OC)c(OC)c2)ccc1O (stereo partly specified)
-39.1

----------
Test: NCI Yeast Anticancer Drug Screen. Data for the rad50 strain (AID 155);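 also: 0% = growth of vehicle-only cultures of the same strain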
Details: S. cerevisiae rad50 strain growth inhibition; at 50.0 µM
Description: Growth inhibition of yeast strains with defined genetic alterations is measured as a screen for potential anti-cancer activity. Selected strains with alterations in DNA damage repair or cell cycle control were exposed to compounds and growth inhibition was measured relative to vehicle treated controls. The strain used in this assay is rad50
Compounds without any hit were thinned out: in the full panel of roughly 79,000, 15% have a hit. Active and inactive are the calls of the source. Cut-off read from the data, not from the text of the source: active = growth inhibition above about 70%; inactive = the rest.
Returns: one label drawn from active, inactive

Worked examples, 10 molecules total:
CCOc1ccc(C(C)c2cc3c(cc2OC)OCO3)cc1 (configuration not stated) ... inactive
CC1(C)OC(=O)ON(Cc2ccccc2)C1=O ... inactive
O=C(Nc1ccccc1Cl)Nc1ccccc1Br ... inactive
COC(=O)C(=O)c1c(C(=O)OC)nc2nnc(N)n2c1-c1ccc(OC)cc1 ... inactive
CC(C)(Oc1ccc(/C=C/C(=O)c2ccc(Cl)cc2)cc1)C(=O)Nc1c(Cl)cccc1Cl ... inactive
C=Cn1c2ccccc2c2ccccc21 ... inactive
O=C(O)C(Br)C(Br)C(=O)Nc1ccc(F)cc1 (configuration not stated) ... active
C=C(Cl)COc1ccc(-c2ccccc2)cc1 ... inactive
O=S(=O)(O)C(O)Cc1cccc2ccccc12 (configuration not stated) ... inactive
COCCNC(=O)C(C)O (configuration not stated) ... inactive

Answer briefly: the call reported for CC(C)(C)c1cc(Nc2c([N+](=O)[O-])cc([N+](=O)[O-])cc2[N+](=O)[O-])cc(C(C)(C)C)c1O in this assay.
inactive

Answer briefly: the call reported for CC1CCC2c3c([nH]c4ccccc34)C3C(=O)N(C4CCCCC4)C(=O)C3C2C1 (configuration not stated) in this assay.
inactive

Answer briefly: the call reported for OCC1OC(OC2CC3C(OC4OC(CO)C(O)C(O)C4O)CC(O)CC3OC2c2ccc(O)cc2)C(O)C(O)C1O (configuration not stated) in this assay.
inactive

Answer briefly: the call reported for CCOC(=O)N[n+]1ccccc1 in this assay.
inactive

Answer briefly: the call reported for CCCCCCCCCCC#N in this assay.
inactive

Answer briefly: the call reported for COC(=O)Nc1cccc(OC(=O)NC2CCCCC2)c1 in this assay.
inactive

Answer briefly: the call reported for CN(C)c1ccc(/C=C/c2ccnc3c(N)cccc23)cc1 in this assay.
inactive

Answer briefly: the call reported for CCN(CC)CCCOC(c1ccccc1)c1ccc(Cl)cc1 (configuration not stated) in this assay.
inactive

Answer briefly: the call reported for c1ccc(N2CCCC2(c2ccccc2)c2ccccc2)cc1 in this assay.
inactive

Answer briefly: the call reported for COc1ccc(N2C(=O)c3c(c4[nH]c5ccccc5c4c4ccc(C(C)(C)C)cc34)C2=O)cc1 in this assay.
inactive

Answer briefly: the call reported for COc1c(Cl)cc([N+](=O)[O-])cc1Cl in this assay.
inactive

----------
compounds and their reported growth inhibition
test: NCI Yeast Anticancer Drug Screen. Data for the cln2 rad14 strain (AID 165);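 also: 0% = growth equal to vehicle treated cultures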; settings: S. cerevisiae cln2 rad14 strain, at 50.0 µM, active compounds read high
The panel holds about 79,000 compounds, 15% with a hit somewhere; the sample as a whole holds those more often.
Return type: number; implicit unit %.

Answered cases to consult:
CC(=O)Nc1ccccc1O ... -18.3
Nc1cn(Cc2ccccc2)c(=O)n(Cc2ccccc2)c1=O ... -57.5
O=CC1N=C1c1ccccc1 (centres undefined) ... 18.3
CCOC1CCCC(OCC)O1 (centres undefined) ... 12
CCCCc1ccc(-n2c(C)nc3[nH]cc(C)c3c2=N)cc1 ... -1.75
CCCCCCC/C=C\C=O ... -1.25

Let us move to another entry and its growth inhibition.
Give growth inhibition for the following compound: CNC(=S)SSSC(=S)NC
2.55

----------
Assay: NCI Yeast Anticancer Drug Screen. Data for the mlh1 rad18 strain (AID 175)
Conditions: S. cerevisiae mlh1 rad18 strain growth inhibition; at 50.0 µM; active compounds read high
Procedure: Growth inhibition of yeast strains with defined genetic alterations is measured as a screen for potential anti-cancer activity. Selected strains with alterations in DNA damage repair or cell cycle control were exposed to compounds and growth inhibition was measured relative to vehicle treated controls. The strain used in this assay is mlh1 rad18
About 79,000 compounds went through this panel and 15% of them were active in at least one assay; those are over-represented in the sample as a whole.
compounds and their reported growth inhibition
Return type: number; implicit unit %.

Answered cases to consult:
CS/C(c1ccccc1)=[N+](/C)[O-] ... 25.6
CCCc1cc(=O)[nH]c(=S)[nH]1 ... 15.8
O=C(c1ccccc1)N1C2C3CC(OCc4ccccc4)(OCc4ccccc4)C(O3)C21 (stereo not drawn) ... -9.95
O=C(NC(Cc1ccccc1)P(=O)(O)c1ccccc1)OCc1ccccc1 (stereo not drawn) ... -12
CNc1c(F)cc(N=Nc2ccccc2)cc1F ... 10.1
CC1CC(N2CSC(=S)N(C3CC(C)CC(C)(C)C3)C2)CC(C)(C)C1 (stereo not drawn) ... -0.4

Give growth inhibition for the following compound: O=C(OCC(Cl)(Cl)Cl)N1[C@H]2C3=C(CCC3)[C@@H]([C@H]3O[C@H]32)N1C(=O)OCC(Cl)(Cl)Cl
2.3

Give growth inhibition for the following compound: O=C1C(=S)Nc2cccc(F)c21
33

Give growth inhibition for the following compound: CCN(CC)C(=O)c1c(-c2ccccc2)nc(-c2ccccc2)c(C(=O)N(CC)CC)c1Cl
27.8

Give growth inhibition for the following compound: c1ccc(C2=NN3CN(N2)c2ccccc2OCCCOc2ccccc23)cc1
6.25

Give growth inhibition for the following compound: CC1(c2cccc(N)c2)OCCO1
11.9

Give growth inhibition for the following compound: CC(C)(O)C(Cc1ccccc1)c1ccccc1 (stereo not drawn)
0.8

----------
experiment: NCI Yeast Anticancer Drug Screen. Data for the bub3 strain (AID 167); details: S. cerevisiae bub3 mutant strain, at 50.0 µM, active compounds read high
About 79,000 compounds went through this panel and 15% of them were active in at least one assay; those are over-represented in the sample as a whole.
molecules and their reported growth inhibition
Return type: number; implicit unit %.

C[n+]1cccc2cc([N+](=O)[O-])ccc21 ... 3.9
COc1cc(/C=N/n2c(C)cc(C)c(C#N)c2=O)cc(OC)c1OC ... -1.05
[O-]/[N+]1=[N+](\[O-])c2ccccc2CCCc2ccccc21 ... -12.8
O=C(Nc1ccc(F)cc1)Nc1ccc(F)cc1 ... -32.9
CC(=O)C(=CC=C(c1ccc(N(C)C)cc1)c1ccc(N(C)C)cc1)C(C)=O ... 12.7
O=C1c2ccccc2Cc2ccccc21 ... 16.4
N#CC(OC(=O)c1cccc(C(=O)OC(C#N)(C(F)(F)F)C(F)(F)F)c1Sc1ccccc1)(C(F)(F)F)C(F)(F)F ... 7.55
CCN(CC)C(=O)Oc1cc(C)c([N+](C)(C)C)cc1C(C)C ... 24.6
CN(c1ccc(C(=O)c2ccc(N(C)S(C)(=O)=O)cc2)cc1)S(C)(=O)=O ... 4.5
C/C(CC(C)(C)C)=N/O ... -14.9

Give growth inhibition for the following molecule: COc1cccc(OC)c1NC(=O)NCCCl
0.15

Give growth inhibition for the following molecule: O=C1C(=O)c2ccccc2C(O)=C1CN(CCO)CCO
23.4

Give growth inhibition for the following molecule: Cc1nc(N=C(N)N)nc2ccccc12
2.65

Give growth inhibition for the following molecule: COc1ccc(N2C(=O)OC3(CCN(Cc4ccccc4)CC3)C2=O)cc1
8

Give growth inhibition for the following molecule: Cc1[nH]c2ccc([N+](=O)[O-])cc2c1C
25.4
